Tested on: MDA-MB-435
PROTOCOL NOTES: NCI tumour cell line growth inhibition, 48 h
Active and inactive are the calls of the source. No stated cut-off is given here; in the data, active = GI50 up to about 1.1 µM and inactive = higher.
MEASURE NAME: GI50

A selection of reference data follows.
O=C(O)COc1ccc(C(=O)/C(SS/C(C(=O)c2ccc(OCC(=O)O)c(Cl)c2Cl)=C2\C=C(c3ccc(Br)cc3)SS2)=C2/C=C(c3ccc(Br)cc3)SS2)c(Cl)c1Cl
30.3 µM (inactive)
CC(=O)OCC1OC(n2c(-c3ccc(Cl)cc3)ccc(C#N)c2=S)C(OC(C)=O)C(OC(C)=O)C1OC(C)=O (stereo not drawn)
53.3 µM (inactive)
Cn1c(CO)ccc1-c1ccc(-c2ccc(CO)[se]2)[se]1
3.08 µM (inactive)

(Q) What does the record list as GI50 for O=C1Nc2ccccc2/C1=N/Nc1ccccc1Cl ?
(A) > 100 µM (inactive)

(Q) Which GI50 is listed for NS(=O)(=O)c1ccc(-n2c(-c3cccs3)nc3ccc(I)cc3c2=O)cc1 ?
(A) 18.9 µM (inactive)

(Q) What GI50 value was documented for this molecule, CC1CC[C@@]2(OC1)OC1C[C@H]3[C@@H]4CC[C@H]5CC(OC6OC(CO)C(OC7OC(CO)C(O)C(O)C7O)C(O)C6O)CCC5(C)[C@H]4CCC3(C)C1[C@@H]2C (stereo partly drawn) ?
(A) 9.25 µM (inactive)

(Q) Which GI50 is reported for this molecule? CN(C)CCCCN1CCc2c(n(C)c3ccccc23)C1=O
(A) 17.5 µM (inactive)

(Q) Field request: GI50 | item: COc1ccc2nc3n(c2c1)CCc1cc(OC)c(OC)cc1-3
(A) 34.5 µM (inactive)
